Cited source for all entries: PubChem BioAssay AID1919002

- Test system: 743489-274-T-PDC complex spheroid growth;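 also: spheroids exposed to agents for 7 days before readout; 100% = DMSO vehicle control wells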
- Test description: Anticancer human tumor 743489-274-T-PDC patient-derived renal cell carcinoma cell line growth inhibition [AhR]
- Experimental parameters: second compound 10 µM; first compound 0.0316 µM; hits give low values
- Text: Multicellular complex tumor spheroid response to aryl hydrocarbon receptor antagonists in combination with a variety of drugs and investigational agents in selected tumor cell lines […] Compounds. […] If the clinical Cmax for an agent had not been determined, the highest concentration tested was 10 microM (Table 1). […]

Compound | viability, T/C [%]
Cn1ncnc1C1c2n[nH]c(=O)c3cc(F)cc(c23)NC1c1ccc(F)cc1 (centres undefined) + Cc1ccccc1N=Nc1ccc(NC(=O)c2ccnn2C)c(C)c1 | 89.4
Nc1ccn(C2OC(CO)C(O)C2(F)F)c(=O)n1 (centres undefined) + Cc1ccccc1N=Nc1ccc(NC(=O)c2ccnn2C)c(C)c1 | 69.9
CC1(C)CCC(CN2CCN(c3ccc(C(=O)NS(=O)(=O)c4ccc(NCC5CCOCC5)c([N+](=O)[O-])c4)c(Oc4cnc5[nH]ccc5c4)c3)CC2)=C(c2ccc(Cl)cc2)C1 + CC(CO)NC(=O)c1cc(-c2ccc(Cl)cc2)nn(-c2cnn(C)c2)c1=O | 95.4
CC1COCCN1c1cc(-c2ccnn2C)c2ccnc(-c3ccn[nH]3)c2n1 (centres undefined) + CC(CO)NC(=O)c1cc(-c2ccc(Cl)cc2)nn(-c2cnn(C)c2)c1=O | 92.1
Nc1ncn(C2CC(O)C(CO)O2)c(=O)n1 (centres undefined) + Cc1ccccc1N=Nc1ccc(NC(=O)c2ccnn2C)c(C)c1 | 90
Nc1ccccc1NC(=O)c1ccc(CNC(=O)OCc2cccnc2)cc1 + CC(CO)NC(=O)c1cc(-c2ccc(Cl)cc2)nn(-c2cnn(C)c2)c1=O | 79.1
COc1cccc2c1C(=O)c1c(O)c3c(c(O)c1C2=O)CC(O)(C(=O)CO)CC3OC1CC(N)C(O)C(C)O1 (centres undefined) + Cc1ccccc1N=Nc1ccc(NC(=O)c2ccnn2C)c(C)c1 | 85.3
Nc1ncn(C2CC(O)C(CO)O2)c(=O)n1 (centres undefined) + CC(CO)NC(=O)c1cc(-c2ccc(Cl)cc2)nn(-c2cnn(C)c2)c1=O | 88.7
COc1cccc2c1C(=O)c1c(O)c3c(c(O)c1C2=O)CC(O)(C(=O)CO)CC3OC1CC(N)C(O)C(C)O1 (centres undefined) + Cc1cncc(-c2nc(NCCc3c[nH]c4ccccc34)c3ncn(C(C)C)c3n2)c1 | 111
O=C(c1cc(Cc2n[nH]c(=O)c3ccccc23)ccc1F)N1CCN(C(=O)C2CC2)CC1 + Cc1ccccc1N=Nc1ccc(NC(=O)c2ccnn2C)c(C)c1 | 92.4
NS(=O)(=O)OCC1CC(n2ccc3c(NC4CCc5ccccc54)ncnc32)CC1O (centres undefined) + Cc1cncc(-c2nc(NCCc3c[nH]c4ccccc34)c3ncn(C(C)C)c3n2)c1 | 114
COc1ccc([C@@H](O)c2cc(-c3ncnc4cc(N5CCOCC5)ccc34)c(F)cc2Cl)nn1 + CC(CO)NC(=O)c1cc(-c2ccc(Cl)cc2)nn(-c2cnn(C)c2)c1=O | 101
NS(=O)(=O)OCC1CC(n2ccc3c(NC4CCc5ccccc54)ncnc32)CC1O (centres undefined) + Cc1ccccc1N=Nc1ccc(NC(=O)c2ccnn2C)c(C)c1 | 96.7
CC(C)c1c(-c2ccccc2)nc2c(C#N)c[nH]n2c1=O + CC(CO)NC(=O)c1cc(-c2ccc(Cl)cc2)nn(-c2cnn(C)c2)c1=O | 98.9
COc1cc(C2c3cc4c(cc3C(OC3OC5COC(C)OC5C(O)C3O)C3COC(=O)C23)OCO4)cc(OC)c1O (centres undefined) + Cc1cncc(-c2nc(NCCc3c[nH]c4ccccc34)c3ncn(C(C)C)c3n2)c1 | 131
COc1cc(Nc2ncc3c(n2)-c2ccc(Cl)cc2C(c2c(F)cccc2OC)=NC3)ccc1C(=O)O + Cc1cncc(-c2nc(NCCc3c[nH]c4ccccc34)c3ncn(C(C)C)c3n2)c1 | 119
Cn1ncnc1C1c2n[nH]c(=O)c3cc(F)cc(c23)NC1c1ccc(F)cc1 (centres undefined) + CC(CO)NC(=O)c1cc(-c2ccc(Cl)cc2)nn(-c2cnn(C)c2)c1=O | 90.9
Cn1ncnc1C1c2n[nH]c(=O)c3cc(F)cc(c23)NC1c1ccc(F)cc1 (centres undefined) + Cc1cncc(-c2nc(NCCc3c[nH]c4ccccc34)c3ncn(C(C)C)c3n2)c1 | 111
O=C(C=Cc1cccc(S(=O)(=O)Nc2ccccc2)c1)NO + Cc1ccccc1N=Nc1ccc(NC(=O)c2ccnn2C)c(C)c1 | 75.4
Nc1ccn(C2OC(CO)C(O)C2(F)F)c(=O)n1 (centres undefined) + CC(CO)NC(=O)c1cc(-c2ccc(Cl)cc2)nn(-c2cnn(C)c2)c1=O | 90.2
CC[C@@]1(O)C(=O)OCc2c1cc1n(c2=O)Cc2cc3c(CN(C)C)c(O)ccc3nc2-1 + Cc1cncc(-c2nc(NCCc3c[nH]c4ccccc34)c3ncn(C(C)C)c3n2)c1 | 123
Nc1ccn(C2OC(CO)C(O)C2(F)F)c(=O)n1 (centres undefined) + Cc1cncc(-c2nc(NCCc3c[nH]c4ccccc34)c3ncn(C(C)C)c3n2)c1 | 138
Nc1ncn(C2CC(O)C(CO)O2)c(=O)n1 (centres undefined) + Cc1cncc(-c2nc(NCCc3c[nH]c4ccccc34)c3ncn(C(C)C)c3n2)c1 | 131
CC1(C)CCC(CN2CCN(c3ccc(C(=O)NS(=O)(=O)c4ccc(NCC5CCOCC5)c([N+](=O)[O-])c4)c(Oc4cnc5[nH]ccc5c4)c3)CC2)=C(c2ccc(Cl)cc2)C1 + Cc1cncc(-c2nc(NCCc3c[nH]c4ccccc34)c3ncn(C(C)C)c3n2)c1 | 106
